Each record here notes measured Plant response rating, Foxtail, Giant.
system: foxtail, giant (giant foxtail, Setaria faberii); assay: Test A preemergence, giant foxtail; assay type: in vivo; conditions: 1000 g ai/ha, visual rating after approx. 10 d, 0 to 100 scale, 0 no effect, 100 complete control

COMPOUND	Plant response rating, Foxtail, Giant
O=C(Nc1ccccc1F)C1C(=O)OCC1c1ccc(F)cc1 (racemic)	50
O=C(Nc1ccccc1F)C1C(=O)OCC1c1ccc(F)c(F)c1 (racemic)	80
Cc1ccccc1NC(=O)C1C(=O)OCC1c1ccc(F)cc1 (racemic)	70
O=C(Nc1ccccc1C(F)(F)F)C1C(=O)OCC1c1ccc(F)cc1 (centres unmarked)	80
O=C(Nc1ccccc1Cl)C1C(=O)OCC1c1ccc(F)cc1 (racemic)	40

----------
tested on: ducksalad (Heteranthera limosa); assay: Test B flooded paddy test, ducksalad; assay type: in vivo; details: 1000 g ai/ha; applied to paddy water at 2-leaf stage; 13 to 15 d; scale 0 no effect to 100 complete control
Each record here notes measured Plant response rating, Flood, Ducksalad.

MOLECULE	Plant response rating, Flood, Ducksalad
O=C(Nc1ccccc1F)C1C(=O)OCC1c1ccc(C(F)(F)F)cc1 (racemic)	30
O=C(Nc1cccc(F)c1F)C1C(=O)OCC1c1ccc(C(F)(F)F)cc1 (racemic)	40
O=C(Nc1cccc(F)c1C(F)(F)F)C1C(=O)OCC1c1ccc(C(F)(F)F)cc1 (racemic)	25
O=C(Nc1ccccc1C(F)(F)F)C1C(=O)OCC1c1ccc(C(F)(F)F)cc1 (racemic)	30

----------
Each record here notes measured Plant response rating, Foxtail, Giant.
tested on: foxtail, giant (giant foxtail, Setaria faberii); assay: Test A preemergence, giant foxtail; format: in vivo; details: 125 g ai/ha, visual rating after approx. 10 d, 0 to 100 scale, 0 no effect, 100 complete control

COMPOUND	Plant response rating, Foxtail, Giant
O=C(Nc1cccc(F)c1C(F)(F)F)C1C(=O)OCC1c1ccc(F)c(C(F)(F)F)c1 (racemic) [Compound 18]	0
O=C(Nc1ccccc1C(F)(F)F)C1C(=O)OCC1c1ccc(C(F)(F)F)cc1 (racemic) [Compound 9]	30
O=C(Nc1cccc(F)c1F)C1C(=O)OCC1c1cccc(C(F)(F)F)c1 (racemic) [Compound 12]	30
O=C(Nc1cccc(F)c1F)C1C(=O)OCC1c1ccc(F)c(C(F)(F)F)c1 (racemic) [Compound 15]	70
O=C(Nc1ccccc1F)C1C(=O)OCC1c1ccc(F)c(C(F)(F)F)c1 (racemic) [Compound 16]	50
O=C(Nc1cccc(F)c1F)C1C(=O)OCC1c1ccc(C(F)(F)F)cc1 (racemic) [Compound 7]	30
O=C(Nc1ccccc1F)C1C(=O)OCC1c1cccc(C(F)(F)F)c1 (racemic) [Compound 11]	70
O=C(Nc1ccccc1C(F)(F)F)C1C(=O)OCC1c1ccc(F)c(C(F)(F)F)c1 (racemic) [Compound 17]	20

----------
tested on: ryegrass, Italian (Italian ryegrass, Lolium multiflorum); test: Test A postemergence, Italian ryegrass; assay type: in vivo; conditions: 125 g ai/ha, visual rating after approx. 10 d, 0 to 100 scale, 0 no effect, 100 complete control
Each record here notes measured Plant response rating, Ryegrass, Italian.
MEASURED QUANTITY: Plant response rating, Ryegrass, Italian

MOLECULE	ASSAYED SYSTEM	MEASURED RESULT
CC1(C(=O)Nc2ccccc2C(F)(F)F)C(=O)OCC1c1ccc(F)cc1 (racemic) [Compound 21]	ryegrass, Italian (Italian ryegrass, Lolium multiflorum)	0
CC1(C(=O)Nc2cccc(F)c2F)C(=O)OCC1c1ccc(F)cc1 (racemic) [Compound 22]	ryegrass, Italian (Italian ryegrass, Lolium multiflorum)	20
O=C(Nc1cccc(F)c1F)C1C(=O)OCC1c1ccc(F)c(C(F)(F)F)c1 (racemic) [Compound 15]	ryegrass, Italian (Italian ryegrass, Lolium multiflorum)	0
O=C(Nc1cccc(F)c1F)C1C(=O)OCC1c1cccc(C(F)(F)F)c1 (racemic) [Compound 12]	ryegrass, Italian (Italian ryegrass, Lolium multiflorum)	0
O=C(Nc1cccc(F)c1C(F)(F)F)C1C(=O)OCC1c1cccc(C(F)(F)F)c1 (racemic) [Compound 13]	ryegrass, Italian (Italian ryegrass, Lolium multiflorum)	0
O=C(Nc1cccc(F)c1F)C1C(=O)OCC1c1ccc(C(F)(F)F)cc1 (racemic) [Compound 7]	ryegrass, Italian (Italian ryegrass, Lolium multiflorum)	0

----------
Each record here notes measured Plant response rating, Barnyardgrass.
system: barnyardgrass (Echinochloa crus-galli); test: Test A postemergence, barnyardgrass; assay type: in vivo; details: 125 g ai/ha, visual rating after approx. 10 d, 0 to 100 scale, 0 no effect, 100 complete control

COMPOUND	Plant response rating, Barnyardgrass
O=C(Nc1ccccc1F)C1C(=O)OCC1c1ccc(F)c(C(F)(F)F)c1 (racemic) [Compound 16]	20
CC1(C(=O)Nc2ccccc2C(F)(F)F)C(=O)OCC1c1ccc(F)cc1 (racemic) [Compound 21]	0
O=C(Nc1ccccc1C(F)(F)F)C1C(=O)OCC1c1ccc(C(F)(F)F)cc1 (racemic) [Compound 9]	0
O=C(Nc1ccccc1F)C1C(=O)OCC1c1cccc(C(F)(F)F)c1 (racemic) [Compound 11]	10
O=C(Nc1cccc(F)c1C(F)(F)F)C1C(=O)OCC1c1ccc(C(F)(F)F)cc1 (racemic) [Compound 10]	0
O=C(Nc1ccccc1Cl)C1C(=O)OCC1c1ccc(F)c(F)c1 (racemic) [Compound 3]	0
O=C(Nc1cccc(F)c1F)C1C(=O)OCC1c1ccc(C(F)(F)F)cc1 (racemic) [Compound 7]	0

----------
Each record here notes measured Plant response rating, Flood, Barnyardgrass.
tested on: barnyardgrass (Echinochloa crus-galli); test: Test B flooded paddy test, barnyardgrass; type: in vivo; settings: 500 g ai/ha; applied to paddy water at 2-leaf stage; 13 to 15 d; scale 0 no effect to 100 complete control
MEASURED QUANTITY: Plant response rating, Flood, Barnyardgrass

MOLECULE	MEASURED RESULT
O=C(Nc1cccc(F)c1C(F)(F)F)C1C(=O)OCC1c1cccc(C(F)(F)F)c1 (racemic) [Compound 13]	0
O=C(Nc1cccc(F)c1F)C1C(=O)OCC1c1cccc(C(F)(F)F)c1 (racemic) [Compound 12]	0
O=C(Nc1ccccc1F)C1C(=O)OCC1c1ccc(F)c(C(F)(F)F)c1 (racemic) [Compound 16]	0
O=C(Nc1ccccc1C(F)(F)F)C1C(=O)OCC1c1ccc(F)c(C(F)(F)F)c1 (racemic) [Compound 17]	0
O=C(Nc1ccccc1C(F)(F)F)C1C(=O)OCC1c1cccc(C(F)(F)F)c1 (racemic) [Compound 14]	0
O=C(Nc1ccccc1F)C1C(=O)OCC1c1cccc(C(F)(F)F)c1 (racemic) [Compound 11]	0
O=C(Nc1cccc(F)c1C(F)(F)F)C1C(=O)OCC1c1ccc(F)c(C(F)(F)F)c1 (racemic) [Compound 18]	0
O=C(Nc1cccc(F)c1F)C1C(=O)OCC1c1ccc(F)c(C(F)(F)F)c1 (racemic) [Compound 15]	0

----------
system: galium (catchweed bedstraw, Galium aparine); experiment: Test A postemergence, galium; assay type: in vivo; details: 500 g ai/ha, visual rating after approx. 10 d, 0 to 100 scale, 0 no effect, 100 complete control
Each record here notes measured Plant response rating, Galium.

COMPOUND	ASSAYED SYSTEM	Plant response rating, Galium
O=C(Nc1ccccc1C(F)(F)F)C1C(=O)OCC1c1ccc(C(F)(F)F)cc1 (racemic)	galium (catchweed bedstraw, Galium aparine)	0
O=C(Nc1cccc(F)c1F)C1C(=O)OCC1c1cccc(C(F)(F)F)c1 (racemic)	galium (catchweed bedstraw, Galium aparine)	0
O=C(Nc1cccc(F)c1C(F)(F)F)C1C(=O)OCC1c1cccc(C(F)(F)F)c1 (racemic)	galium (catchweed bedstraw, Galium aparine)	0
O=C(Nc1cccc(F)c1F)C1C(=O)OCC1c1ccc(C(F)(F)F)cc1 (racemic)	galium (catchweed bedstraw, Galium aparine)	0
O=C(Nc1ccccc1F)C1C(=O)OCC1c1ccc(F)c(C(F)(F)F)c1 (racemic)	galium (catchweed bedstraw, Galium aparine)	0
O=C(Nc1ccccc1C(F)(F)F)C1C(=O)OCC1c1cccc(C(F)(F)F)c1 (racemic)	galium (catchweed bedstraw, Galium aparine)	30
